tested system: mGAT3 (Mus musculus)
Construct: expressed in transfected cells; host or cells: HEK-293
Sequence (P31649 whole entry): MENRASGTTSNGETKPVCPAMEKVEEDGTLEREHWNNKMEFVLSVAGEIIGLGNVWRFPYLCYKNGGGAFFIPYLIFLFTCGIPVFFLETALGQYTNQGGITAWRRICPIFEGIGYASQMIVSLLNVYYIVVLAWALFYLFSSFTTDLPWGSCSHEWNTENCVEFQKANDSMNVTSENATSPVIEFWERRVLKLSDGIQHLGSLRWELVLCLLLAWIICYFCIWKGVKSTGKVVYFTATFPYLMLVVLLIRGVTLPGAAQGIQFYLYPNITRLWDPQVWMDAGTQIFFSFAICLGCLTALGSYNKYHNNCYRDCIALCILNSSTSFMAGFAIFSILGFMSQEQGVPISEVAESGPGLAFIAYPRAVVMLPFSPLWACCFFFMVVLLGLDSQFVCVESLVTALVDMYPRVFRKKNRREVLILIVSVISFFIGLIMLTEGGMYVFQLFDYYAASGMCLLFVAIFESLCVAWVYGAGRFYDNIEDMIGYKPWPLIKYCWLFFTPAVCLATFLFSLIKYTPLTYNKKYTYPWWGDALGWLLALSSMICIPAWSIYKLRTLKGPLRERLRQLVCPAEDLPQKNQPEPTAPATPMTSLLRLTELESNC
test protocol: [3H]GABA uptake assay in HEK-293 cells stably expressing mGAT3
Format: cell-based
condition set: [3H]GABA uptake; read-out: pIC50 ± SEM mGAT3 (converted)
measurement kind: IC50 (µM)

# molecule, IC50 [µM]
rows = [
    ("C[C@H](O)C[C@H](C(=O)NCc1ccc(Cl)cc1)N(C)CCC=C1c2ccccc2CCc2ccccc21 (relative stereo) [2RS,4SR-39b]", 10.2),
]

a: Cc1ccsc1C(=CCCN(C)C(C)C(=O)NCc1ccccc1)c1sccc1C (stereo not shown) [Compound 67]
b: CN(CCON=C(c1ccccc1)c1ccccc1)C(CCN)C(=O)NCc1ccc(Cl)c(Cl)c1 (stereo not shown) [Compound 50b]
c: CC(O)CC(C(=O)NCc1ccccc1)N1CCC(=C2c3ccccc3CCc3ccccc32)CC1 (stereo not shown) [2RS,4SR-43a]
Asked: Sort by IC50, descending. I would appreciate it if you listed the labels in the requested order.
Given back: c, a, b

A: CC(O)CC(C(=O)NCc1ccccc1)N1CCC(=C2c3ccccc3-c3ccccc32)CC1 (stereo not shown) [2RS,4SR-41a]
B: CN(CCC=C1c2ccccc2C=Cc2ccccc21)C(CO)C(=O)NCc1ccccc1Cl (stereo not shown) [Compound 55b]
C: Cc1ccc(CNC(=O)[C@@H](C[C@@H](C)O)N(C)CCC=C2c3ccccc3CCc3ccccc32)cc1 (relative stereo) [Compound 2RS,4RS-39c]
D: CC(O)CC(C(=O)NCc1ccccc1)N(C)CCON=C(c1ccccc1)c1ccccc1 (stereo not shown) [2RS,4RS-45]
E: CCC(C(=O)NCc1ccccc1)N(C)CCC=C(c1sccc1C)c1sccc1C (stereo not shown) [Compound 68]
Asked: Sort by IC50, descending. Please list the labels in the order you were asked to rank them.
Given back: A, E, D, B, C
(A: 55 µM, E: 30.9 µM, D: 20 µM, B: 10.7 µM, C: 6.61 µM)

a: Cc1ccc(CNC(=O)C(CO)N(C)CCC=C2c3ccccc3C=Cc3ccccc32)cc1 (stereo not shown) [Compound 55e]
b: CN(CCC=C1c2ccccc2CCc2ccccc21)C(CO)C(=O)NCc1ccccc1 (stereo not shown) [Compound 56a]
c: CC(O)CC(C(=O)NCc1ccccc1)N1CCC(=C2c3ccccc3-c3ccccc32)CC1 (stereo not shown) [2RS,4RS-41a]
d: CN(CCON=C(c1ccccc1)c1ccccc1)C(CCO)C(=O)NCc1ccccc1Cl (stereo not shown) [Compound 47b]
Asked: List from greatest to least IC50. Return value: ordered labels per request.
Given back: c, b, a, d
(c: 64.6 µM, b: 22.9 µM, a: 15.8 µM, d: 9.12 µM)

Just for reference, paper PMC8397297 is where these values come from.
